assay: in vitro; settings: human, Caco-2, Caco-2 (cm/sec)
*1 amine or outer side, *2 acyl side, *3 side chain or, on linkers, in order; H or OH if unused. Where a SMILES comes first, the peptide text is derived from it. Bridges are numbered along the chain shown (N, C = ends). [ ]: non-standard residue; d: D form. The star is where a group is joined. NMehPhe = CN[C@@H](CCc1ccccc1)C(=O)O; X6 = O=C([C@H](CCCCO)N[*:1])[*:2]; NMeF = CN[C@@H](Cc1ccccc1)C(=O)O; NMeL = CN[C@@H](CC(C)C)C(=O)O; NMeAbu = CC[C@H](NC)C(=O)O; Piperidide = C1CCN(*)CC1; Sar = CNCC(=O)O
assay-endpoint: Papp (×10⁻⁶ cm/s)
One number for each entry, in ×10⁻⁶ cm/s.

Ask: Return the recorded Papp value; entry: CC[C@H]1C(=O)N[C@@H](CC(C)C)C(=O)N(C)[C@@H](CC(C)C)C(=O)N(C)[C@@H](Cc2ccccc2)C(=O)N[C@@H](CCCCO)C(=O)N(C)[C@@H](CCc2ccccc2)C(=O)N(C)[C@@H](CC(C)C)C(=O)N[C@@H]([C@@H](C)O)C(=O)N(C)CC(=O)N(C)[C@@H](CC(C)C)C(=O)N[C@H](C(=O)N2CCCCC2)CC(=O)N1C [Compound B06] ([NMeAbu]L[NMeL][NMeF][X6][NMehPhe][NMeL]T[Sar][NMeL]D-Piperidide; lactam N-11)
Result: 0.39

---

assay: in vitro; conditions: human, Caco-2, Caco-2 (cm/sec)
*1 amine or outer side, *2 acyl side, *3 side chain or, on linkers, in order; H or OH if unused. Where a SMILES comes first, the peptide text is derived from it. Bridges are numbered along the chain shown (N, C = ends). [ ]: non-standard residue; d: D form. The star is where a group is joined. ξ: configuration not given here. Phe(3-OMe,4-CONHMs) = COc1cc(C[C@H](N)C(=O)O)ccc1C(=O)NS(C)(=O)=O; hPhe(3-OMe,4-CONHMe) = CNC(=O)c1ccc(CC[C@H](N)C(=O)O)cc1OC; X11 = CNC(=O)c1ccc(CCN(CC(=O)[*:2])[*:1])cc1OC; NMePhe(3-Cl) = CN[C@@H](Cc1cccc(Cl)c1)C(=O)O; NMehPhe = CN[C@@H](CCc1ccccc1)C(=O)O; NMeF = CN[C@@H](Cc1ccccc1)C(=O)O; NMeGABA = CN(CCCC(=O)[*:2])[*:1]; NMeI = CC[C@H](C)[C@H](NC)C(=O)O; NMeL = CN[C@@H](CC(C)C)C(=O)O; Butyl(3S-OH) = C[C@H](O)CC*; NMeV = CN[C@H](C(=O)O)C(C)C; NMeAbu = CC[C@H](NC)C(=O)O; NMeA = CN[C@@H](C)C(=O)O; Piperidide = C1CCN(*)CC1; Abu = CC[C@H](N)C(=O)O; NBuGly = CCCCNCC(=O)O; Isopentyl = CC(C)CC*; NPrGly = CCCNCC(=O)O; Ethyl(2-OH) = OCC*; ξS = NC(CO)C(=O)O; Sar = CNCC(=O)O; tBu = CC(C)(C)*
I'd be grateful if you could share measured Papp for these entries.
One number for each entry, in ×10⁻⁶ cm/s.

# map each molecule to its Papp
1. CC[C@H](C)[C@@H]1NC(=O)[C@H](CC(C)C)N(C)C(=O)[C@@H](CC(C)C)NC(=O)C[C@@H](C(=O)N2CCCCC2)NC(=O)[C@H](CC(C)C)N(C)C(=O)[C@H](Cc2ccccc2)N(C)C(=O)[C@H](COC(C)(C)C)NC(=O)CN(CCc2ccc(C(=O)NC)c(OC)c2)C(=O)CN(C)C(=O)[C@H]([C@@H](C)O)NC(=O)[C@H](CC(C)C)N(C)C1=O [AP221] ([dL][NMeL]I[NMeL]T[Sar][X11]S(tBu)[NMeF][NMeL]D-Piperidide; lactam N-11)
2. CC[C@H](C)[C@@H]1NC(=O)[C@H](CC(C)C)N(C)C(=O)CCCN(C)C(=O)C[C@@H](C(=O)N2CCCCC2)NC(=O)[C@H](CC(C)C)N(C)C(=O)[C@H](CC(C)C)N(C)C(=O)[C@H]([C@@H](C)O)NC(=O)[C@H](CC(C)C)N(C)C(=O)[C@H](Cc2ccc(C(=O)NS(C)(=O)=O)c(OC)c2)NC(=O)[C@H](CC(C)C)N(C)C(=O)[C@H](Cc2ccccc2)N(C)C1=O [AP138] ([NMeGABA][NMeL]I[NMeF][NMeL][Phe(3-OMe,4-CONHMs)][NMeL]T[NMeL][NMeL]D-Piperidide; lactam N-11)
3. CCCN1CC(=O)N(C)[C@@H](CC(C)C)C(=O)N[C@@H](COCCC(C)C)C(=O)N(C)[C@@H](Cc2ccccc2)C(=O)N(C)[C@@H](CC(C)C)C(=O)N[C@H](C(=O)N2CCCCC2)CC(=O)N[C@H](C(C)C)C(=O)N(C)[C@@H](CCc2ccccc2)C(=O)N[C@@H](COCCO)C(=O)N(C)[C@@H](CC(C)C)C(=O)N[C@@H]([C@@H](C)O)C1=O [Compound A01] ([dV][NMehPhe]S(Ethyl(2-OH))[NMeL]T[NPrGly][NMeL]S(Isopentyl)[NMeF][NMeL]D-Piperidide; lactam N-11)
4. CC[C@H]1C(=O)N[C@@H](Cc2ccc(O)cc2)C(=O)N(C)[C@@H](CC(C)C)C(=O)N(C)[C@@H](CC(C)C)C(=O)N[C@@H](C(C)C)C(=O)N(C)[C@@H](Cc2ccccc2)C(=O)N(C)[C@@H](CC(C)C)C(=O)N[C@@H]([C@@H](C)O)C(=O)N(C)CC(=O)N(C)[C@@H](CC(C)C)C(=O)N[C@H](C(=O)N2CCCCC2)CC(=O)N1C [Compound F06] ([NMeAbu]Y[NMeL][NMeL]V[NMeF][NMeL]T[Sar][NMeL]D-Piperidide; lactam N-11)
5. CC(C)C[C@H]1C(=O)N[C@@H]([C@@H](C)O)C(=O)N(C)[C@@H](CC(C)C)C(=O)N(C)[C@@H](CC(C)C)C(=O)N[C@H](C(=O)N2CCCCC2)CC(=O)N(C)CCCC(=O)N(C)[C@@H](C(C)C)C(=O)NC(COCC[C@H](C)O)C(=O)N(C)[C@@H](Cc2ccccc2)C(=O)N(C)[C@@H](Cc2cccc(Cl)c2)C(=O)N[C@@H](COC(C)(C)C)C(=O)N1C (stereo partly drawn) [AP101] ([NMeGABA][NMeV][ξS](Butyl(3S-OH))[NMeF][NMePhe(3-Cl)]S(tBu)[NMeL]T[NMeL][NMeL]D-Piperidide; lactam N-11)
6. CC[C@@H]1NC(=O)[C@H](CC(C)C)N(C)C(=O)[C@H](Cc2ccccc2)N(C)C(=O)CN(C)C(=O)[C@H](Cc2ccc(C(=O)NS(C)(=O)=O)c(OC)c2)NC(=O)[C@H](CC(C)C)N(C)C(=O)[C@H](C(C)C)NC(=O)[C@H](CC(C)C)N(C)C(=O)CN(C)C(=O)C[C@@H](C(=O)N2CCCCC2)NC(=O)[C@H](CC(C)C)N(C)C1=O [AP143] ([Sar][NMeL]V[NMeL][Phe(3-OMe,4-CONHMs)][Sar][NMeF][NMeL][Abu][NMeL]D-Piperidide; lactam N-11)
7. CC[C@H](C)[C@@H]1NC(=O)[C@H](CC(C)C)N(C)C(=O)[C@@H](C)NC(=O)C[C@@H](C(=O)N2CCCCC2)NC(=O)[C@H](C(C)C)N(C)C(=O)[C@H](Cc2ccccc2)N(C)C(=O)[C@H](COC(C)(C)C)NC(=O)[C@H](CC(C)C)N(C)C(=O)CN(C)C(=O)[C@H](Cc2ccc(O)cc2)NC(=O)[C@H](C)N(C)C1=O [pd117] ([dA][NMeL]I[NMeA]Y[Sar][NMeL]S(tBu)[NMeF][NMeV]D-Piperidide; lactam N-11)

Result:
1: 0.28; 2: 0.06; 3: 0.6; 4: 0.23; 5: 0.59; 6: 0.13; 7: 0.56

# map each molecule to its Papp
1. CC[C@H](C)[C@@H]1NC(=O)[C@H](CC(C)C)N(C)C(=O)[C@@H](C)NC(=O)C[C@@H](C(=O)N2CCCCC2)NC(=O)[C@H](C(C)C)N(C)C(=O)[C@H](CC(C)C)N(C)C(=O)[C@H](COC(C)(C)C)NC(=O)[C@H](CC(C)C)N(C)C(=O)CN(C)C(=O)[C@H](Cc2c[nH]c3ccccc23)NC(=O)[C@H](CC(C)C)N(C)C1=O [pd108] ([dA][NMeL]I[NMeL]W[Sar][NMeL]S(tBu)[NMeL][NMeV]D-Piperidide; lactam N-11)
2. CCCCN1CC(=O)N[C@@H](CC(C)C)C(=O)N2CCC[C@H]2C(=O)N(C)[C@@H](C(C)C)C(=O)N[C@@H](CCc2ccc(C(=O)NC)c(OC)c2)C(=O)N(C)[C@@H](Cc2ccccc2)C(=O)N(C)[C@@H](CC(C)C)C(=O)N[C@@H](CC(C)C)C(=O)N(C)[C@@H]([C@@H](C)CC)C(=O)N[C@H](C(=O)N2CCCCC2)CC(=O)N[C@H](C(C)C)C(=O)N[C@@H]([C@@H](C)O)C1=O [AP265] ([dV]T[NBuGly]LP[NMeV][hPhe(3-OMe,4-CONHMe)][NMeF][NMeL]L[NMeI]D-Piperidide; lactam N-12)

Result:
1. 0.87
2. 0.46

These measurements were taken from patent US20230096766A1.
